Consider the following pIC50 values measured on EP2 (Homo sapiens (Human)).
Sequence (P43116 whole entry): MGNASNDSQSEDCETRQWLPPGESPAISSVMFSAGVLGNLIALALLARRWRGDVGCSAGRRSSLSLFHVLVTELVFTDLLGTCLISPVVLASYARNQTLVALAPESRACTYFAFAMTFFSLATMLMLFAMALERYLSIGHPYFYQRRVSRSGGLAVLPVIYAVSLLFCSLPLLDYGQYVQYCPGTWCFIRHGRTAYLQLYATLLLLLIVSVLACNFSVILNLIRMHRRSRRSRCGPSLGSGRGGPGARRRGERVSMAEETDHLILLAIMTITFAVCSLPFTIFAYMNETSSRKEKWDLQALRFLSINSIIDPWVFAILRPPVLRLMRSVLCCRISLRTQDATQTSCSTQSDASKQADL
One number for each entry, as −log10 of the molar value.

Previously resolved entries follow.
Query: What pIC50 value was documented for this compound, COc1cncc(-c2ccc(-c3cc(NCCn4c(C)cc5c(OC)cc(F)cc54)ncn3)cc2)n1 ?
Result: 7.40

Query: What pIC50 value was documented for this compound, CCCc1cc(-c2cc(NCCn3c(C)cc4c(OC)ccc(Cl)c43)ncn2)cc(OCC)c1C(=O)O ?
Result: 7.22

Query: What pIC50 value was documented for this compound, Cc1cc(F)cc2c1cc(C)n2CCNc1cc(-c2cc(Cl)c(C(=O)O)c(OCC(C)C)c2)ncn1 ?
Result: 7.70

Please report pIC50 for every entry that follows.
1. Cc1cc(F)c(F)c2c1cc(C)n2CCNc1cc(-c2cc(C(F)(F)F)c(C(=O)O)s2)ncn1
2. CCOc1cc(-c2cc(NCCn3c(C)cc4c(OC)ccc(F)c43)ncn2)ccc1-c1nnn[nH]1
3. Cc1ccc(F)c2c1cc(C)n2CCNc1cc(-c2ccc(-c3csc(CC(N)=O)n3)cc2)ncn1
4. CCONC(=O)c1ccc(-c2cc(NCCn3c(C)cc4c(OC)ccc(F)c43)ncn2)cc1OCC
5. Cc1cc(-c2ccc(-c3cc(NCCn4c(C)cc5c(C)cc(F)cc54)ncn3)cc2)on1
6. COc1ccc(F)c2c1cc(C)n2CCNc1cc(-c2ccc(Cn3cccn3)c(F)c2)ncn1
7. CCCc1cc(-c2cc(NCCn3c(C)cc4cc(F)cc(Cl)c43)ncn2)cc(Cl)c1C(=O)O

Result:
7.02
8.40
7.20
7.70
7.14
6.05
7.77

Please report pIC50 for every entry that follows.
1. CCCOc1cc(-c2cc(NCCn3c(C)cc4c(C)cc(F)cc43)ncn2)cc(F)c1C(=O)O
2. COc1cc(F)cc2c1cc(C)n2CCNc1cc(-c2ccc(-c3c[nH]c(C)n3)cc2)ncn1

Result:
1: 7.44; 2: 8.30

Please report pIC50 for every entry that follows.
1. Cc1ccc(F)c2c1cc(C)n2CCNc1cc(-c2ccc(-c3cnc(CCC(=O)O)o3)cc2)ncn1
2. CCCOc1cc(-c2cc(NCCn3c(C)cc4c(OC)cc(F)c(F)c43)ncn2)cc(Cl)c1C(=O)O
3. COc1cc(F)cc2c1cc(C)n2CCNc1cc(-c2ccc(C(=O)O)c(OC(F)(F)F)c2)ncn1
4. CCOc1cc(-c2cc(NCCn3c(C)cc4c(OC)ccc(Cl)c43)ncn2)ccc1C(=O)O

Result:
6.53
7.21
7.80
7.74
